- Tested on: PF0039 patient-derived organoid
- measurementProtocol: Patient-derived organoid viability screen, IC50
- Format: cell-based
- conditionNotes: read-out: IC50 PF 0039
Catalogue of compounds with associated IC50
Give the number; µM is assumed, so skip it.

compound: CC(C)CN1C(=O)N(c2ccccc2)C2C=CC(O)C21 (racemic) [E2(Rac)]
IC50 / µM: 31.7
--
compound: CCOC1C=CC2C1N(CC(C)C)C(=O)N2c1ccccc1 (racemic) [E4(Rac)]
IC50 / µM: 25.8
--
compound: COC1CCC2C1N(CC(C)C)C(=O)N2c1ccccc1 (racemic) [E5(Rac)]
IC50 / µM: 7.26
--
compound: COC1C=CC2C1N(CC(C)C)C(=O)N2c1ccc(C)cc1 (racemic) [E12(Rac)]
IC50 / µM: 7.42
--
compound: COc1ccc(N2C(=O)N(CC(C)C)C3C(OC)C=CC32)cc1 (racemic) [E9(Rac)]
IC50 / µM: 43.5

Q) Which measured IC50 belongs to COC1C=CC2C1N(CC(C)C)C(=O)N2Cc1ccccc1 (racemic) [E6(Rac)] , tested on PF0039 patient-derived organoid?
A) 40.7

Q) # value lookup — system PF0039 patient-derived organoid, readout IC50, item COC1C=CC2C1N(CC(C)C)C(=O)N2c1ccc(Cl)cc1 (racemic) [E8(Rac)]
A) 8.19

Measured values drawn from patent US12152008B2 for this set.
